# target-under-test: proton pump (H+/K+-ATPase) (UniProt P19156)
# method-description: Inhibition of proton pump (H+/K+-ATPase activity)
# applied-conditions: K+-stimulated proton pump activity, pH 6.0, 37° C., 30 minutes preincubation; read-out: IC50 (concentration inhibiting 50% of the proton pump activity)
# Experimental: Test 1: Inhibition of proton pump (H^+/K^+-ATPase activity) A proton pump enzyme was prepared by the same method as in the Experiment 1-1 of WO 94/14795. Further, the inhibitory effect of proton pump activity was measured by the same method as in Experiment 1-2 of WO 94/14795. […] Thereafter, the test tube of each Group were placed at 37° C. for 30 minutes for the preincubation. […] The released inorganic phosphate was measured by an automatic analyzer(Express 550, coming). […]
pIC50: −log10 of the molar value. Counter-ions that a name gives are not always drawn.
value-kind: pIC50

Problem: Which pIC50 value is on record for COCc1nc(Nc2ccccc2)nc(N2CCc3ccccc3C2C)c1C.Cl (centres unmarked) [Example 31, hydrochloride] ?
Result: 5.59

Problem: Please look up its pIC50: C=CCNc1nc(C)c(C)c(N2CCc3ccccc3C2)n1 [Example 2, hydrochloride]
Result: 5.11

Problem: What does the data say about its pIC50? Entry: CCCNc1nc(COC)c(C)c(N2CCc3ccccc3C2)n1.Cl [Example 25, hydrochloride]
Result: 5.73

1: COc1ccc2[nH]c([S+]([O-])Cc3ncc(C)c(OC)c3C)nc2c1 (centres unmarked) [Omeprazole, omeprazole, reference compound]
2: Cc1csc(Nc2nc(C)c(C)c(N3CCc4ccccc4C3)n2)n1.Cl [Example 23, hydrochloride]
Problem: Higher pIC50 between 1 and 2 ? Your answer should be the label of the entry you select.
Result: 2
